List of GI50 values.
tested on: A549; experiment: Growth inhibition against A549 cell line was evaluated; format: functional; conditions: Homo sapiens
measuredQuantity: GI50 (nM)

{"compound": "CCCCCCCCCCCCOC(=O)[C@H](O)C/C=C\\C[C@@H]1O[C@@H]2/C=C/C/C=C/C(C)=C\\[C@H]3O[C@@H](C/C=C/C=C/C(=O)O[C@H](C2)[C@@]1(C)CO)C[C@H](O)[C@H]3C", "endpointResult": 200}
{"compound": "C=C(CCC(C)C)COC(=O)[C@H](O)C/C=C\\C[C@@H]1O[C@@H]2/C=C/C/C=C/C(C)=C\\[C@@H]3C[C@@H](O)C[C@H](C/C=C/C=C/C(=O)O[C@H](C2)[C@@]1(C)CO)O3", "endpointResult": 100}
{"compound": "C=C(CCC(C)C)COC(=O)[C@H](O)C/C=C\\C[C@@H]1O[C@@H]2/C=C/C/C=C/C(C)=C\\[C@H]3O[C@@H](C/C=C/C=C/C(=O)O[C@H](C2)[C@@]1(C)CO)C[C@H](O)[C@H]3C [LASONOLIDE A]", "endpointResult": 15}

====

test system: A549; assay: Growth inhibition against A549 cell line was evaluated; format: functional; conditions: Homo sapiens
Parameter: GI50. Scope: all listed entries.
measuredQuantity: GI50 (nM)

{"molecule": "C=C(CCC(C)C)COC(=O)[C@H](O)C/C=C\\C[C@@H]1O[C@@H]2/C=C/C/C=C/C(C)=C\\[C@H]3O[C@@H](C/C=C/C=C/C(=O)O[C@H](C2)[C@@]1(C)CCO)C[C@H](O)[C@H]3C", "endpointResult": 800}
{"molecule": "CCOC(=O)[C@H](O)C/C=C\\C[C@@H]1O[C@@H]2/C=C/C/C=C/C(C)=C\\[C@H]3O[C@@H](C/C=C/C=C/C(=O)O[C@H](C2)[C@@]1(C)CO)C[C@H](O)[C@H]3C [LASONOLIDE E]", "endpointResult": 7}

====

Listed next: entries and their corresponding GI50.
test system: HCT-116; test: Growth inhibition against HCT116 cell line was evaluated; assay type: functional; conditions: Homo sapiens
measuredQuantity: GI50

{"compound": "C=C(CCC(C)C)COC(=O)[C@H](O)C/C=C\\C[C@@H]1O[C@@H]2/C=C/C/C=C/C(C)=C\\[C@H]3O[C@@H](C/C=C/C=C/C(=O)O[C@H](C2)[C@@]1(C)CCO)C[C@H](O)[C@H]3C", "measuredQuantity": "GI50", "endpointResult": "1800 nM"}
{"compound": "C=C(CCC(C)C)COC(=O)[C@H](O)C/C=C\\C[C@@H]1O[C@@H]2/C=C/C/C=C/C(C)=C\\[C@@H]3C[C@@H](O)C[C@H](C/C=C/C=C/C(=O)O[C@H](C2)[C@@]1(C)CO)O3", "measuredQuantity": "GI50", "endpointResult": "45 nM"}
{"compound": "CCCCCCCCCCCCOC(=O)[C@H](O)C/C=C\\C[C@@H]1O[C@@H]2/C=C/C/C=C/C(C)=C\\[C@H]3O[C@@H](C/C=C/C=C/C(=O)O[C@H](C2)[C@@]1(C)CO)C[C@H](O)[C@H]3C", "measuredQuantity": "GI50", "endpointResult": "190 nM"}
{"compound": "CCOC(=O)[C@H](O)C/C=C\\C[C@@H]1O[C@@H]2/C=C/C/C=C/C(C)=C\\[C@H]3O[C@@H](C/C=C/C=C/C(=O)O[C@H](C2)[C@@]1(C)CO)C[C@H](O)[C@H]3C [LASONOLIDE E]", "measuredQuantity": "GI50", "endpointResult": "100 nM"}
{"compound": "C=C(CCC(C)C)COC(=O)[C@H](O)C/C=C\\C[C@@H]1O[C@@H]2/C=C/C/C=C/C(C)=C\\[C@H]3O[C@@H](C/C=C/C=C/C(=O)O[C@H](C2)[C@@]1(C)CO)C[C@H](O)[C@H]3C [LASONOLIDE A]", "measuredQuantity": "GI50", "endpointResult": "3 nM"}
